Where do the numbers come from? From patent US6900193B1.

Test system: progesterone-induced endometrial proliferation
Test: AntiClauberg test
Assay type: in vivo, rabbit
Conditions: Table 2; oral; CDB-2914 = 100 (assigned)
Tag: Y if measured BIOLOGICAL ACTIVITY antiClauberg is not below 100, N if it is.

> print(dat)
                                   molecule  classification
1  CCC(=O)OCC(=O)[C@@]1(OC(C)=O)CCC2C3CCC4=CC(=O)CCC4=C3C(c3ccc(N(C)C)cc3)C[C@@]21C (stereo partly drawn) [Compound 126a]               Y
2  CC(=O)O[C@]1(C(C)=O)CC[C@H]2[C@@H]3CCC4=CC(=O)CCC4=C3[C@@H](c3ccc(N4CCCCC4)cc3)C[C@@]21C [Compound 71]               Y
3  COCC(=O)C1(OC)CCC2C3CCC4=CC(=O)CCC4=C3C(c3ccc(N4CCCCC4)cc3)CC21C (stereo not drawn) [Compound 113c]               N

Now look at this one.
[ask] Is BIOLOGICAL ACTIVITY antiClauberg for COCC(=O)OCC(=O)[C@@]1(OC(C)=O)CC[C@H]2[C@@H]3CCC4=CC(=O)CCC4=C3[C@@H](c3ccc(N(C)C)cc3)C[C@@]21C [Compound 126b] at or above 100?
[reply] Y
